The entries that follow carry log10(IC50) values tested on Cyclin-dependent kinase 9 (Homo sapiens, UniProt P50750), drawn from several published reports.
Sequence (P50750 whole entry): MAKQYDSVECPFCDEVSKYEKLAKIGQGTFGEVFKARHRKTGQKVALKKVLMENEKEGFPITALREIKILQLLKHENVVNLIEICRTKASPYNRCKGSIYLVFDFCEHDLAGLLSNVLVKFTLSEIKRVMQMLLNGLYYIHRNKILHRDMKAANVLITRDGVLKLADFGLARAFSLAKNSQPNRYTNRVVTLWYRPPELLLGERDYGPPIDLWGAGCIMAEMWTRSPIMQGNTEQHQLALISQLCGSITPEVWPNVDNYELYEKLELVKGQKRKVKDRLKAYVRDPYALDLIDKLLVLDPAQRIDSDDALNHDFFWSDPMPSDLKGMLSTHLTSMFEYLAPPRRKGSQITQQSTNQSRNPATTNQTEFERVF
Friendly reminder: values = log10 of IC50, unit µM.

Give the reported log10(IC50) for this compound. Nc1nccc(-c2cc3c([nH]2)[C@H](CCF)CNC3=O)n1 -1.02

Give the reported log10(IC50) for this compound. O=C(Cn1cc(Br)c(=O)n(CC(=O)Nc2ccc(Br)cn2)c1=O)Nc1ccc(Br)cn1 -0.66

Give the reported log10(IC50) for this compound. CC(C)N1c2cc(Nc3nccc(-c4ccc(N)cc4)n3)ccc2N(C)C(=O)[C@H]1C -1.31

Now consider the entry below.
Give the reported log10(IC50) for this compound. CN1CCN(CCCCOc2c(OCc3ccc(C#N)cc3)cc(O)c3c(=O)cc(-c4ccccc4)oc23)CC1 -0.06

----------
The entries that follow carry IC50 values tested on Cyclin-dependent kinase 9 (Homo sapiens), drawn from several published reports.

Would you please look over these solved cases?
Give the reported IC50 for this compound. O=C(CCCCNC(=O)c1n[nH]cc1NC(=O)c1c(Cl)cccc1Cl)NO < 100 nM

Give the reported IC50 for this compound. Clc1ccnc2[nH]c(-c3ccc(N4CCNCC4)cc3)cc12 20 nM

Give the reported IC50 for this compound. COC(=O)Nc1nc2cc(Sc3nnc4ccc(-c5ccc(F)cc5)nn34)ccc2[nH]1 > 10000 nM

---
Give the reported IC50 for this compound. O=C(CCNC(=O)c1n[nH]cc1NC(=O)c1c(Cl)cccc1Cl)NO < 100 nM

Give the reported IC50 for this compound. Cc1cc2cc(-c3cc(N)nc(N)c3)ccc2o1 > 10000 nM

Give the reported IC50 for this compound. COc1cc(F)ccc1-c1ccnc(Nc2ccc3c(c2)N(C(C)C)[C@H](C)C(=O)N3C)n1 46.9 nM

Give the reported IC50 for this compound. O=C(CCCNC(=O)c1ccc(NC(=O)c2n[nH]cc2NC(=O)c2c(Cl)cccc2Cl)cc1)NO < 100 nM

Give the reported IC50 for this compound. COc1cc(C(=O)Nc2ccc(NC(=O)c3ccccn3)cc2)cc(N2CCC(=O)NC2=O)c1 > 30000 nM

Give the reported IC50 for this compound. FC(F)(F)CNc1nc(Nc2ccc3cn[nH]c3c2)nc2ccoc12 > 10000 nM

----------
The entries that follow carry pIC50 values tested on UniProt P50750, drawn from several published reports.
Scale: pIC50 equals -log10([C]), with [C] in mol/L.

Give the reported pIC50 for this compound. O=C1/C(=C/c2ccc(O)c(O)c2)Oc2cc(O)ccc21 5.67

Give the reported pIC50 for this compound. CC(C)N1c2cc(Nc3nccc(-c4cccc5cnccc45)n3)ccc2N(C)C(=O)[C@H]1C 7.10

Give the reported pIC50 for this compound. NC(=O)c1cc(-c2ccnc(N)n2)[nH]c1-c1ccc(Cl)cc1Cl 8.00

Give the reported pIC50 for this compound. Cc1oc2ccc(-c3cc(N)nc(N)c3)cc2c1C 5.05

Give the reported pIC50 for this compound. Nc1nccc(-c2cc3c([nH]2)C(CCC(F)(F)F)CNC3=O)n1 (stereo in doubt; 93-1) 6.66

Give the reported pIC50 for this compound. Cc1cnc(OC2CCCCC2)nc1-c1cnc(Nc2ccccn2)s1 7.59

Give the reported pIC50 for this compound. CCC1CNC(=O)c2cc(-c3ccnc(N)n3)[nH]c21 (stereo in doubt; 86-1) 7.14

----------
The entries that follow carry pIC50 values tested on Cyclin-dependent kinase 9 (Homo sapiens, UniProt P50750), drawn from several published reports.
Scale: pIC50 equals -log10([C]), with [C] in mol/L.

Give the reported pIC50 for this molecule. COC(=O)Nc1nc2cc(OS(=O)(=O)c3c(Cl)cccc3Cl)ccc2[nH]1 5.92

Give the reported pIC50 for this molecule. CC(C)Nc1cccc(-c2ccnc(Nc3ccc4c(c3)N(C(C)C)[C@H](C)C(=O)N4C)n2)c1 7.29

Give the reported pIC50 for this molecule. Cc1ccc([N+](=O)[O-])cc1S(=O)(=O)N(C)/N=C/c1cnc2ccc(Br)cn12 8.85

Give the reported pIC50 for this molecule. CC(C)N1c2cc(Nc3nccc(-c4ccnc5ccccc45)n3)ccc2N(C)C(=O)[C@H]1C 7.70

Give the reported pIC50 for this molecule. CC(C)N1c2cc(Nc3nccc(-c4cccc5ncccc45)n3)ccc2N(C)C(=O)[C@H]1C 7.09

Give the reported pIC50 for this molecule. Nc1nccc(-c2cc3c([nH]2)C(C2CCC2)CNC3=O)n1 (stereo in doubt; 88-1) 7.08

Give the reported pIC50 for this molecule. O=C1N=NC(=O)/C(=C\Nc2ccc(-c3nc4ncccc4[nH]3)cc2)C(=O)N1 6.30

----------
The entries that follow carry IC50 values tested on Cyclin-dependent kinase 9 (Homo sapiens, UniProt P50750), drawn from several published reports.
Response body: numeric value in nM, unit text excluded.

Fill in: IC50 on Cyclin-dependent kinase 9 (Homo sapiens, UniProt P50750), entry Cc1nc2ccc(-c3cc(N)nc(N)c3)nc2n1CCOc1cccc(Br)n1 289

Fill in: IC50 on Cyclin-dependent kinase 9 (Homo sapiens, UniProt P50750), entry Cc1cc(=O)c2c(O)cc(O)c([C@@H]3CCN(C)C[C@@H]3O)c2o1 300

Fill in: IC50 on Cyclin-dependent kinase 9 (Homo sapiens, UniProt P50750), entry CC(C)N1c2cc(Nc3nccc(-c4cccc(NC5CCCC5)c4)n3)ccc2N(C)C(=O)[C@H]1C 122

Fill in: IC50 on Cyclin-dependent kinase 9 (Homo sapiens, UniProt P50750), entry Nc1nc(Nc2ccccc2)nc(-c2cc(Cl)ccc2O)n1 295

Now consider the entry below.
Fill in: IC50 on Cyclin-dependent kinase 9 (Homo sapiens, UniProt P50750), entry Nc1cc(-c2ccc3oc(Cl)cc3c2)cc(N)n1 5430

----------
pIC50: −log10 of the molar value.
The entries that follow carry pIC50 values tested on Cyclin-dependent kinase 9 (Homo sapiens, UniProt P50750), drawn from several published reports.

Give the reported pIC50 for this molecule. O=C(CCCCCNC(=O)c1ccc(NC(=O)c2n[nH]cc2NC(=O)c2c(Cl)cccc2Cl)cc1)NO > 7.00

Give the reported pIC50 for this molecule. O=C(CCCCCN1CCC(NC(=O)c2n[nH]cc2NC(=O)c2c(Cl)cccc2Cl)CC1)NO > 7.00

Give the reported pIC50 for this molecule. Nc1ccccc1NC(=O)c1ccc(NC(=O)c2n[nH]cc2NC(=O)c2c(F)cccc2F)cc1 > 7.00

Give the reported pIC50 for this molecule. Cc1nc(NCc2ncccc2F)c2c(-c3ccnc(N)c3)c[nH]c2n1 < 5.00

Give the reported pIC50 for this molecule. O=C(CCCCN1CCC(NC(=O)c2n[nH]cc2NC(=O)c2c(Cl)cccc2Cl)CC1)NO > 7.00

Give the reported pIC50 for this molecule. Cc1cc(N)c(NC(=O)c2ccc(NC(=O)c3n[nH]cc3NC(=O)c3c(Cl)cccc3Cl)cc2)cc1C > 7.00

---
Give the reported pIC50 for this molecule. Cc1cc(N)c(NC(=O)c2ccc(NC(=O)c3n[nH]cc3NC(=O)c3c(F)cccc3F)cc2)cc1C > 7.00

Give the reported pIC50 for this molecule. Cc1nc2ccc(-c3cc(N)nc(N)c3)nc2n1C[C@@H](C)Oc1ccccn1 < 5.52

----------
The entries that follow carry IC50 values tested on Cyclin-dependent kinase 9 (Homo sapiens, UniProt P50750), drawn from several published reports.

Would you please look over these solved cases?
Fill in: IC50 on Cyclin-dependent kinase 9 (Homo sapiens, UniProt P50750), entry O=C(CCNC(=O)c1ccc(NC(=O)c2n[nH]cc2NC(=O)c2c(F)cccc2F)cc1)NO < 0.1 µM

Fill in: IC50 on Cyclin-dependent kinase 9 (Homo sapiens, UniProt P50750), entry Nc1cc(Br)c(Br)cc1NC(=O)c1ccc(NC(=O)c2n[nH]cc2NC(=O)c2c(Cl)cccc2Cl)cc1 < 0.1 µM

Fill in: IC50 on Cyclin-dependent kinase 9 (Homo sapiens, UniProt P50750), entry O=C(CCCCNC(=O)c1ccc(NC(=O)c2n[nH]cc2NC(=O)c2c(F)cccc2F)cc1)NO < 0.1 µM

Fill in: IC50 on Cyclin-dependent kinase 9 (Homo sapiens, UniProt P50750), entry COc1cc2c(Nc3ccc(NC(=O)c4ccccc4)cc3)nc(N)nc2cc1O > 30 µM

Fill in: IC50 on Cyclin-dependent kinase 9 (Homo sapiens, UniProt P50750), entry CC1(C)OCC(=O)Nc2cc(Nc3nc(NCC(F)(F)F)c4occc4n3)ccc21 > 10 µM

---
Fill in: IC50 on Cyclin-dependent kinase 9 (Homo sapiens, UniProt P50750), entry O=C(CCCCN1CCC(NC(=O)c2n[nH]cc2NC(=O)c2c(F)cccc2F)CC1)NO < 0.1 µM

Fill in: IC50 on Cyclin-dependent kinase 9 (Homo sapiens, UniProt P50750), entry COc1cc(C(=O)Nc2ccc(NC(=O)c3ccccn3)cc2)ccc1O > 30 µM

Fill in: IC50 on Cyclin-dependent kinase 9 (Homo sapiens, UniProt P50750), entry CCNC(=O)Nc1ccc(NC(=O)c2cc(OC)cc(-c3c[nH]c(=O)[nH]c3=O)c2)cc1 > 30 µM
